Target Or Test System: Focal adhesion kinase 1 (Homo sapiens)
Test Method Notes: PTK2 protein binding on printed compound slides – biochemical, small-molecule microarray, 635/667 nm fluorescence, BSA, DTT, primary screen (AID 1130);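 also: composite of spot emission at 667 nm and signal to noise over triplicate slides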
Test Parameters: 635 nm fluorescence, higher = more signal
Endpoint Label: composite z-score
Answers are plain numbers.

Example cases with answers are listed next.
>>> numeric_result("C=CC[C@]12N=C(c3ccc(OCCCO)cc3)O[C@H]1c1ccccc1N(CCS(=O)(=O)c1ccccc1)C2=O")
0.472
>>> numeric_result("CCN(CC)c1ccc(N2CC=CC34O[C@@H]5C=CCOC(=O)[C@@H]5[C@H]3C(=O)N(CCCCCCO)[C@@H]4C2=O)cc1 (some centres undefined)")
-0.148
>>> numeric_result("CO[C@H]1O[C@H](CO)[C@@H](OC(=O)Nc2ccccc2)[C@@H]2OC(=O)[C@@H](Cc3ccc4ccccc4c3)C/C=C/C[C@H](Cc3ccc4ccccc4c3)C(=O)O[C@@H]12")
1.12

For every item in the list below, what is its measured composite z-score?
1. CCCNC(=O)[C@@]1(Sc2ccc(C)cc2)CC(=O)N(Cc2ccccc2C(F)(F)F)[C@@H]1c1ccc(CO)cc1I
2. C=C(CCCC)C(=O)CC[C@@H](OC(C)=O)c1ccc(CO)o1
3. C=C(CCCC)/C(=C/C[C@@H](OC(C)=O)c1ccccc1OCCO)c1cc(C(=O)OC)ccc1OC
4. COC(=O)[C@@]1(Cc2ccc(OC)cc2)[C@H]2c3cc(C(=O)N4CCCC4)n(CCc4ccc(O)c(O)c4)c3C[C@H]2CN1C(=O)c1ccccc1
5. COc1ccc([Si](C)(C)[C@@H]2[C@@H](CCn3cc(CCO)nn3)O[C@]3(C(=O)N(Cc4cccc(N5C(=O)c6cccc7cccc5c67)c4)c4ccccc43)[C@H]2C)cc1
6. CC1CC/C=C\[C@H]2OC34C=CCN(Cc5ccccc5)C(=O)[C@H]3N(C(C)CO)C(=O)[C@@H]4C2C(=O)O1 (some centres undefined)
7. COC(=O)C(CC#Cc1ccc2c(c1)[C@]1(C(=O)N2)[C@H](c2ccccc2OCCO)N2[C@H](c3ccccc3)[C@H](c3ccccc3)OC(=O)[C@H]2[C@@H]1C(N)=O)C(=O)OC

[0.0382, -0.437, -0.0448, 0.384, 0.321, -0.286, 0.473]

----------
Please provide measured composite z-score for the entries that follow.
Target Or Test System: Streptavidin (Streptomyces avidinii)
Test Method Notes: compounds binding control protein streptavidin – biophysical, small-molecule microarray, 635/667 nm fluorescence, artefact control for SMM compound annotation, primary screen (AID 1147);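 also: signal reflects streptavidin binding to arrayed compounds as a control protein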
Test Parameters: higher = more signal
Numbers only.

For every item in the list below, what is its measured composite z-score?
1. COC(=O)C(CC#Cc1ccc2c(c1)[C@]1(C(=O)N2)[C@H](c2ccccc2OCCO)N2[C@H](c3ccccc3)[C@H](c3ccccc3)OC(=O)[C@H]2[C@@H]1C(N)=O)C(=O)OC
2. COc1ccc([Si](C)(C)[C@H]2[C@H](CCn3cc([C@H](O)c4ccccc4)nn3)O[C@@]3(C(=O)N(C)c4ccccc43)[C@@H]2C)cc1
3. C=CC1c2cc(O)c(OC)cc2CCN1Cc1cccc(OC(F)(F)F)c1 (stereo unspecified)
4. COC(=O)[C@]1(CCC(=O)OC(C)(C)C)N=C(c2ccc(OCCCO)cc2)O[C@@H]1c1ccccc1
5. C=C(CCCC)C(=O)CC[C@H](OC(=O)c1cccnc1)c1ccc(OCCO)cc1

1.5
-0.814
0.577
-0.98
-0.118

For every item in the list below, what is its measured composite z-score?
1. O=C1OCC=C[C@H]2OC34C=CCN(CCN5CCOCC5)C(=O)[C@H]3N(CCO)C(=O)[C@@H]4[C@@H]12 (stereo partly specified)
2. COc1ccc([Si](C)(C)[C@H]2[C@H](CC(=O)N3CCC[C@H]3CO)O[C@@]3(C(=O)N(Cc4cccc(N5CCOC5=O)c4)c4ccccc43)[C@@H]2C)cc1
3. COc1ccc(C#Cc2ccc3c(c2)[C@]2(C(=O)N3)[C@H](c3ccc(O)cc3)N3[C@H](c4ccccc4)[C@H](c4ccccc4)OC(=O)[C@H]3[C@@H]2C(=O)N2CCc3cc(OC)c(OC)cc3C2)cc1
4. CCCCCCCCCCC(O)C1C=CC2C(=O)NC(=O)C2N1Nc1ccc(Cl)cc1Cl (stereo unspecified)
5. C=C(/C(=C/C[C@H](OC(=O)c1ccncc1)c1ccc(OCCO)cc1)c1cc(C(=O)OC)ccc1OC)C(C)C
6. OCC1C=C(/C=C/c2ccccc2)CN1Cc1ccccc1Br (stereo unspecified)

[-0.175, 0.0063, 1.13, -0.261, 1.23, 0.828]
